protocol_conditions: 318.15 K; 100 kPa; Liquid; Vibrating tube method
± gives the expanded uncertainty stated by the source.
experimental_endpoint: mass density

> print(dat)
                        compound  experimental.endpoint               result
1  CC1CCCCC1 [methylcyclohexane]           mass density  747.78 ± 0.16 kg/m3
2  CCC1CCCCC1 [ethylcyclohexane]           mass density  767.96 ± 0.15 kg/m3

Using the record for CCCCC1CCCCC1 [butylcyclohexane] , report its mass density.
780.78 ± 0.15 kg/m3

Look at this compound and give its reported mass density. C1CCC(C2CCCCC2)CC1 [1,1'-bicyclohexyl]
868.43 ± 0.15 kg/m3

----------
protocol_conditions: 298.15 K; 100 kPa; Liquid; Vibrating tube method
experimental_endpoint: mass density (kg/m3)
The response must be a number in kg/m3 with no trailing unit.

Some molecules with recorded mass density:
> print(dat)
                                 molecule  experimental.endpoint  unit.tag  quantitative.result
1           CC1CCCCC1 [methylcyclohexane]           mass density     kg/m3               765.23
2           CCC1CCCCC1 [ethylcyclohexane]           mass density     kg/m3                784.2
3  C1CCC(C2CCCCC2)CC1 [1,1'-bicyclohexyl]           mass density     kg/m3               882.79

# get_value(readout='mass density', item= CCCCC1CCCCC1 [butylcyclohexane] )
795.85

----------
protocol_conditions: 318.15 K; 100 kPa; Liquid; Falling or rolling sphere viscometry
Consider the following compounds and their measured viscosity readings.
Numbers only here, please. The scale is mPa·s.

Here's what some known entries look like.
> print(dat)
                          compound  experimental.endpoint  quantitative.result
1    CC1CCCCC1 [methylcyclohexane]              viscosity                0.545
2    CCC1CCCCC1 [ethylcyclohexane]              viscosity                0.629
3  CCCCC1CCCCC1 [butylcyclohexane]              viscosity                0.898

Let us examine a further case.
# viscosity lookup, item C1CCC(C2CCCCC2)CC1 [1,1'-bicyclohexyl]
2.302

----------
protocol_conditions: 293.15 K; 100 kPa; Liquid; Falling or rolling sphere viscometry
Listing of recorded viscosity by entry.
Provide the reading as a plain figure in mPa·s.

A selection of reference data follows.
> print(dat)
         input.smiles  experimental.endpoint  unit.tag  quantitative.result
1          CCC1CCCCC1              viscosity     mPa·s                0.851
2  C1CCC(C2CCCCC2)CC1              viscosity     mPa·s                4.017
3           CC1CCCCC1              viscosity     mPa·s                0.733

Need viscosity of "CCCCC1CCCCC1" , thanks.
1.3
